- test-system: SMYD3 (Homo sapiens (Human), UniProt Q9H7B4)
- Sequence (Q9H7B4 whole entry): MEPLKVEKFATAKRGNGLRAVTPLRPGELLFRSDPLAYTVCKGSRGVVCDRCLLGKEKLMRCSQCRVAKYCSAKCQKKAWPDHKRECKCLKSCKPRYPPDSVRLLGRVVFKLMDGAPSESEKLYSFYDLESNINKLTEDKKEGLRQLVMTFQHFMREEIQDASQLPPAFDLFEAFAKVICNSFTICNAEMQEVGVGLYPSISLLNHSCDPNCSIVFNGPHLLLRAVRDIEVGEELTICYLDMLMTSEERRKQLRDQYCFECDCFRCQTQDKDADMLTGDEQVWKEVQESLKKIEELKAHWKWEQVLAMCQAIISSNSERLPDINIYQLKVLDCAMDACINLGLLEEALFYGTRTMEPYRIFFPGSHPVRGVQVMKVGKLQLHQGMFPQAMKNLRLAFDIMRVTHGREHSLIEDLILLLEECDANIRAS
- assay-summary: SMYD3 cell assay (Trimethyl-MEKK2 In-Cell Western in 293T/17 cells)
- Assay type: cell-based
- details: read-out: SMYD3 Cell IC50*
Quick list: pIC50 per entry.
Give only the number. pIC50 is defined as minus log10 of concentration in molar units.

Data request: With SMYD3 (Homo sapiens (Human), UniProt Q9H7B4) as the test system, provide measured pIC50 for this molecule: O=C(N[C@H]1C[C@H]2CC[C@@H](C1)N2S(=O)(=O)N1C2CNCC1C2)c1cc(C2CC2)on1
Data returned: 6.87

Data request: Param request: pIC50 | system SMYD3 (Homo sapiens (Human), UniProt Q9H7B4) | item CN(CCO)C1CCN(CCS(=O)(=O)N2[C@@H]3CC[C@H]2C[C@@H](NC(=O)c2cc(C4CC4)on2)C3)C1 (stereo partly shown)
Data returned: 6.43

Data request: Look up and report measured pIC50 (SMYD3 (Homo sapiens (Human), UniProt Q9H7B4)) for the following molecule: CC(C)NC1CCN(S(=O)(=O)N2[C@@H]3CC[C@H]2C[C@@H](NC(=O)c2cc(C4CC4)on2)C3)CC1
Data returned: 6.29

Data request: // fetch pIC50 for COCCCNC1CCN(S(=O)(=O)N2[C@@H]3CC[C@H]2C[C@@H](NC(=O)c2cc(C4CC4)on2)C3)CC1 ; system: SMYD3 (Homo sapiens (Human), UniProt Q9H7B4)
Data returned: 6.93

Values were extracted from patent US10577363B2.
